Reference for the values: patent US20120220482A1

Below, each entry is listed alongside its reported Kd.
EXPERIMENTAL_TARGET: M2 monoclonal anti-flag antibody
ASSAY_SUMMARY: Microarray binding of spotted hits titrated with anti-FLAG antibody
RUN_CONDITIONS: apparent KD from microarray binding curves with decreasing anti-FLAG antibody concentrations; NA = spot not bound by anti-FLAG antibody
Square brackets hold non-standard residues; d marks the D form. Peptide text beside a SMILES is read from it. * marks the point of attachment. N(4-Sulfamoylphenethyl)Gly = NS(=O)(=O)c1ccc(CCNCC(=O)O)cc1; hSer(lactone) = O=C1OCC[C@@H]1N*; NFurfurylGly = O=C(O)CNCc1ccco1
Just the number in nM, nothing appended.

N=C(N)NCCC[C@@H](NC(=O)[C@@H](Cc1ccc(O)cc1)NC(=O)[C@@H](CCCCN)NC(=O)[C@H](N)CCC(=O)O)C(=O)N[C@H](Cc1ccc(O)cc1)C(=O)N[C@H](Cc1c[nH]c2ccccc12)C(=O)N(CC(=O)N[C@H]1CCOC1=O)Cc1ccco1 [Spot B4] (H-[dE][dK][dY][dR][dY][dW][NFurfurylGly]-{hSer(lactone)}; C-terminus assumed) ... 7

# Kd of NCCCC[C@@H](NC(=O)[C@H](N)CC(=O)O)C(=O)N[C@H](Cc1ccc(O)cc1)C(=O)N[C@H](Cc1ccccc1)C(=O)N[C@H](CO)C(=O)N(CCc1ccc(S(N)(=O)=O)cc1)CC(=O)N(CC(=O)N[C@H]1CCOC1=O)Cc1ccco1 [Spot B8] (H-[dD][dK][dY][dF][dS][N(4-Sulfamoylphenethyl)Gly][NFurfurylGly]-{hSer(lactone)}) = 9

* * *

EXPERIMENTAL_TARGET: M2 monoclonal anti-flag antibody
ASSAY_SUMMARY: Microarray binding of spotted hits titrated with anti-FLAG antibody
RUN_CONDITIONS: apparent KD from microarray binding curves with decreasing anti-FLAG antibody concentrations; NA = spot not bound by anti-FLAG antibody
Square brackets hold non-standard residues; d marks the D form. Peptide text beside a SMILES is read from it. * marks the point of attachment. hSer(lactone) = O=C1OCC[C@@H]1N*; NFurfurylGly = O=C(O)CNCc1ccco1
RECORDED_METRIC: pKd
# pKd: negative log10 of molar concentration; output just the value

C[C@@H](NC(=O)[C@@H](Cc1ccc(O)cc1)NC(=O)[C@@H](CCCCN)NC(=O)[C@H](N)CC(N)=O)C(=O)N[C@H](CC(=O)O)C(=O)N[C@H](CC(=O)O)C(=O)N(CC(=O)N[C@H]1CCOC1=O)Cc1ccco1 [Spot A7] (H-[dN][dK][dY][dA][dD][dD][NFurfurylGly]-{hSer(lactone)}; C-terminus assumed) ... 8.30
CC(C)C[C@@H](N)C(=O)N[C@H](CC(=O)O)C(=O)N[C@H](CCCCN)C(=O)N[C@H](Cc1ccc(O)cc1)C(=O)N[C@H](CCC(=O)O)C(=O)N[C@H](Cc1c[nH]c2ccccc12)C(=O)N(CC(=O)N[C@H]1CCOC1=O)Cc1ccco1 [Spot B7] (H-[dL][dD][dK][dY][dE][dW][NFurfurylGly]-{hSer(lactone)}; C-terminus assumed) ... 8.22

# evaluate next
M2 monoclonal anti-flag antibody pKd of NCCCC[C@@H](N)C(=O)N[C@H](Cc1ccc(O)cc1)C(=O)N[C@H](CC(=O)O)C(=O)N[C@H](Cc1c[nH]c2ccccc12)C(=O)N[C@H](CCC(=O)O)C(=O)NCC(=O)N(CC(=O)N[C@H]1CCOC1=O)Cc1ccco1 [Spot H6] (H-[dK][dY][dD][dW][dE]G[NFurfurylGly]-{hSer(lactone)}; C-terminus assumed) is 7.96
